Target: ERK2 (Homo sapiens)
Sequence (P28482 whole entry): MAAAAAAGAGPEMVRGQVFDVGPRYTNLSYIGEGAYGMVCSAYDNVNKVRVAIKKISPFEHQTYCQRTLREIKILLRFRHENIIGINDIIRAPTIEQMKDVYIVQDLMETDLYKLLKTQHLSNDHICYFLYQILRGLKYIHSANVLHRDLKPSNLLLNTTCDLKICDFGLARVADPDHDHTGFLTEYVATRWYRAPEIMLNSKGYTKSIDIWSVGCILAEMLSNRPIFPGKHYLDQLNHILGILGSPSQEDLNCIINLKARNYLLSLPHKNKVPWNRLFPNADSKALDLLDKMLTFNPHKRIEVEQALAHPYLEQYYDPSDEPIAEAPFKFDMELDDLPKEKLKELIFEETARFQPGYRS
Property Measured: pIC50
The read-out pIC50 is expressed as -log10 of concentration in moles per litre.

Request: Tell me the measured pIC50 of COCCN1C(=O)c2cc(-c3ccnc(Nc4ccnn4C)c3)sc2C1(C)C [Example 1] , please.
Response: 8.71
